Biological target: SIK2 (Homo sapiens)
Construct: lines 1-140) and Reaction Biology
Sequence (Q9H0K1 whole entry): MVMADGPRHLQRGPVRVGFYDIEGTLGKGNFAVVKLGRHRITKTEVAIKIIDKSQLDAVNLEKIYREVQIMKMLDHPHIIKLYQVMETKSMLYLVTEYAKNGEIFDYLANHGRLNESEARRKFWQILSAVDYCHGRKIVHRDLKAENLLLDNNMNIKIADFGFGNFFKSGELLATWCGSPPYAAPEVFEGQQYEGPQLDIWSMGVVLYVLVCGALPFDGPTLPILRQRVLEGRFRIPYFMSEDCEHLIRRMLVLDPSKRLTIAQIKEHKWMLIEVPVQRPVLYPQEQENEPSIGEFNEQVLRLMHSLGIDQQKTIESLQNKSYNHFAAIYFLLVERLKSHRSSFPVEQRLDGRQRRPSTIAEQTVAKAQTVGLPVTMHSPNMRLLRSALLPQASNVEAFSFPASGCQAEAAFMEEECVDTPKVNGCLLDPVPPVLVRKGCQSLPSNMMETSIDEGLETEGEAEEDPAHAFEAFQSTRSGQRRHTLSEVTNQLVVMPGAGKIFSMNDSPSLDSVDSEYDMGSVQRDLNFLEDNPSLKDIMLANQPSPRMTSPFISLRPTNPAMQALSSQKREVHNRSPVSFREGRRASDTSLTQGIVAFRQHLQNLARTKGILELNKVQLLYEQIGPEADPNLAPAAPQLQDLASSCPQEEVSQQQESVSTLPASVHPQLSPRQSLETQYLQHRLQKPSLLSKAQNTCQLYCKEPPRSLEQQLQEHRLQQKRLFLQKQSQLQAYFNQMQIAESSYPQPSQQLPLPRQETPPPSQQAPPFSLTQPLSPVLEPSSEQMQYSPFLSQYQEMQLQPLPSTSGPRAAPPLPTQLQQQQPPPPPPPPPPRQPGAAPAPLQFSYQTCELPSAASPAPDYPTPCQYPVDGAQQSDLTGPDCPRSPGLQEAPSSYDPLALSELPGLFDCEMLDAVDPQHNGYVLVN
Assay: Dundee kinase panel
Type: biochemical
Conditions: read-out: residual activity
measured.parameter: remaining activity at 1 µM (%)
One number for each entry, in %.

mol.smiles	remaining activity at 1 µM [%]
COCCOc1ccc(-c2cn(-c3ccccc3)c3nc[nH]c(=O)c23)cc1	90
O=C1Cc2c([nH]c3ccc(Br)cc23)-c2ccccc2N1	13
O=C1Nc2ccc(I)cc2/C1=C/c1cc(Br)c(O)c(Br)c1	24

Next up:
According to the records, this molecule "Oc1ncnc2c1c(-c1ccccc1)cn2-c1ccccc1" displays remaining activity at 1 µM of 99

----------
System: PHK
Assay: Dundee kinase panel
Type: biochemical, human
Conditions: 1 μM
Could you please report measured residual activity for the items listed next?
Give bare numbers, in %.

Before answering, review these 4 worked examples.
mol.smiles	unit.abbreviation	residual activity
O=C1Cc2c([nH]c3ccc(Br)cc23)-c2ccccc2N1	%	20
COCCOc1ccc(-c2cn(-c3ccccc3)c3nc[nH]c(=O)c23)cc1	%	102
O=C1Nc2ccc(I)cc2/C1=C/c1cc(Br)c(O)c(Br)c1	%	26
Nc1ncc(C(=O)NC2CN(C(=O)C3CC3)C2)c2ccc(-c3cccc(F)c3)nc12	%	96

Next up:
According to the records, this compound "Oc1ncnc2c1c(-c1ccccc1)cn2-c1ccccc1" displays residual activity of 106

----------
Could you please report measured remaining activity at 1 µM for the items listed next?
Molecular target: MST4 (Homo sapiens, UniProt Q9P289)
Construct: lines 1-140) and Reaction Biology
Sequence (Q9P289 whole entry): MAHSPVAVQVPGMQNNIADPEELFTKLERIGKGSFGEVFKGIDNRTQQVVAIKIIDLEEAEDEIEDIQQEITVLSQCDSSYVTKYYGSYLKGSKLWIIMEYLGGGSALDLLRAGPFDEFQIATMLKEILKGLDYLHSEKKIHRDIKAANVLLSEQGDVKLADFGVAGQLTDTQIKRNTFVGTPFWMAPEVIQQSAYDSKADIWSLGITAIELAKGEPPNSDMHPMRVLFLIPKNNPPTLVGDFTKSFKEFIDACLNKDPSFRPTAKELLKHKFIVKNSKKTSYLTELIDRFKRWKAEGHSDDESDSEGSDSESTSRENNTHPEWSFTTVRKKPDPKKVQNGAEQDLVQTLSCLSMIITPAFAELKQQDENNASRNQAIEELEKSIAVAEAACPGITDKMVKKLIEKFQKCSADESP
Test: Dundee kinase panel
Format: biochemical
Details: read-out: residual activity
One number for each entry, in %.

Before answering, review these 3 worked examples.
mol.smiles	measured.parameter	measured.value
Oc1ncnc2c1c(-c1ccccc1)cn2-c1ccccc1	remaining activity at 1 µM	109
COCCOc1ccc(-c2cn(-c3ccccc3)c3nc[nH]c(=O)c23)cc1	remaining activity at 1 µM	102
O=C1Cc2c([nH]c3ccc(Br)cc23)-c2ccccc2N1	remaining activity at 1 µM	74

Next up:
Response field remaining activity at 1 µM (MST4 (Homo sapiens, UniProt Q9P289)) for item "O=C1Nc2ccc(I)cc2/C1=C/c1cc(Br)c(O)c(Br)c1" : 89

----------
Target: CHK2 (Homo sapiens)
Construct: lines 1-140) and Reaction Biology
Sequence (O96017 whole entry): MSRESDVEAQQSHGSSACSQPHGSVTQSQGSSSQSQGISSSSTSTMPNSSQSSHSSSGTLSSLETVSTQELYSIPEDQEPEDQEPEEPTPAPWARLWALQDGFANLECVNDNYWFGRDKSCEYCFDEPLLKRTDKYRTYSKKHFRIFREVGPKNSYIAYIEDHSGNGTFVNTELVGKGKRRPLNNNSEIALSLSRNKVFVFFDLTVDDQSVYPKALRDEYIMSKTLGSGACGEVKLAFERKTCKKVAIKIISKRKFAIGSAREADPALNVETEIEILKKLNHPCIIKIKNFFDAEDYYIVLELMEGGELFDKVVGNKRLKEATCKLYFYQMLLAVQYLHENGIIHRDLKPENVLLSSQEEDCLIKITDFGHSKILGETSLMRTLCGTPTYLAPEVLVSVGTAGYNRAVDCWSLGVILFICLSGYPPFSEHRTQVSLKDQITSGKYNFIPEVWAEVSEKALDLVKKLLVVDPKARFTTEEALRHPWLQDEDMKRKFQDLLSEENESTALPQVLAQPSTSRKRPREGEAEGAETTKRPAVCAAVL
Test: Dundee kinase panel
Format: biochemical
Settings: read-out: residual activity
measured.parameter: remaining activity at 1 µM (%)
Numbers only, in %.

Before answering, review these 3 worked examples.
mol.smiles	remaining activity at 1 µM, %
O=C1Nc2ccc(I)cc2/C1=C/c1cc(Br)c(O)c(Br)c1	46
Oc1ncnc2c1c(-c1ccccc1)cn2-c1ccccc1	100
COCCOc1ccc(-c2cn(-c3ccccc3)c3nc[nH]c(=O)c23)cc1	69

Next up:
According to the records, this molecule "O=C1Cc2c([nH]c3ccc(Br)cc23)-c2ccccc2N1" displays remaining activity at 1 µM of 25

----------
Biological target: DAPK1 (Homo sapiens, UniProt P53355)
Construct: lines 1-140) and Reaction Biology
Sequence (P53355 whole entry): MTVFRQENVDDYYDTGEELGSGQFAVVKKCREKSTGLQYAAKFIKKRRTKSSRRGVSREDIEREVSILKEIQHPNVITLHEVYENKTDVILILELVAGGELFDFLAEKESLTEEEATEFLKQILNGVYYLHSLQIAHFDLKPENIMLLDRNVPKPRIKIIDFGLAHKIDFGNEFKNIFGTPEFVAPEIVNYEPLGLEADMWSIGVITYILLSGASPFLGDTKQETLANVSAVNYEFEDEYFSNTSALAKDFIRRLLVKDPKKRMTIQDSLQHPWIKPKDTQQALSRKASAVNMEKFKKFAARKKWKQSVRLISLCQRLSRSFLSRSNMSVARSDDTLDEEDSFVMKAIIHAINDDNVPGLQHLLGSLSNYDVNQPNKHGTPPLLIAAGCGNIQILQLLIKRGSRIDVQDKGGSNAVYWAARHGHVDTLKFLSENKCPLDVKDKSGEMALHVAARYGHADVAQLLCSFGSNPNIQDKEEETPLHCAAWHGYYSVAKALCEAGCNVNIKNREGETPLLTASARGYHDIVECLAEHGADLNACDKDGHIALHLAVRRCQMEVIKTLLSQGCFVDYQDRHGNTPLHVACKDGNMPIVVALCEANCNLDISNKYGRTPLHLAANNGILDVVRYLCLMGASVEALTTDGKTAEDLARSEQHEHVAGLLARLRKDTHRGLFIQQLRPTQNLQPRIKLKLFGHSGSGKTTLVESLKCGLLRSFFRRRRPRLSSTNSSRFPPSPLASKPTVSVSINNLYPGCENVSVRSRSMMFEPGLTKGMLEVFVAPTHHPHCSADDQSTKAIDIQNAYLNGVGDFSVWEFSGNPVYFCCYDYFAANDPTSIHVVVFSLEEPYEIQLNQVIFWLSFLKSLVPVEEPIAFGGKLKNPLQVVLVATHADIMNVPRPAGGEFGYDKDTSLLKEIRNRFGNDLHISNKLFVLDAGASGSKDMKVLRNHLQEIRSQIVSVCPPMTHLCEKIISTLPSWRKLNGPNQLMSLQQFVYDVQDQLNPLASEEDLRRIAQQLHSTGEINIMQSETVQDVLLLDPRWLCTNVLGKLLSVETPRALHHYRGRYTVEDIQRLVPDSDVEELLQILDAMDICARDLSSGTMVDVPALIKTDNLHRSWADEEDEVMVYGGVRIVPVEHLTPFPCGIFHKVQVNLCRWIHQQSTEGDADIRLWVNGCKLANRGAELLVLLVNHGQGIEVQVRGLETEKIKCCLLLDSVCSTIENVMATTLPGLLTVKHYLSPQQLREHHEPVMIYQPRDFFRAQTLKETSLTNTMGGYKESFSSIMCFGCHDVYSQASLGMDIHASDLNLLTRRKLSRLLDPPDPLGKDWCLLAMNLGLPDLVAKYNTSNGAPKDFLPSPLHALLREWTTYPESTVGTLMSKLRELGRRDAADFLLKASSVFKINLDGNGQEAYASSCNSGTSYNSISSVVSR
Assay: Dundee kinase panel
Assay type: biochemical
Settings: read-out: residual activity
Could you please report measured remaining activity at 1 µM for the items listed next?
Give bare numbers, in %.

Before answering, review these 3 worked examples.
compound	measured.value
O=C1Nc2ccc(I)cc2/C1=C/c1cc(Br)c(O)c(Br)c1 [GW5074]	29
O=C1Cc2c([nH]c3ccc(Br)cc23)-c2ccccc2N1 [Kenpaullone]	82
Oc1ncnc2c1c(-c1ccccc1)cn2-c1ccccc1 [F1386-0303]	104

According to the records, this compound COCCOc1ccc(-c2cn(-c3ccccc3)c3nc[nH]c(=O)c23)cc1 [DMX-5804] displays remaining activity at 1 µM of 133
